study_system: Torsin-1A-interacting protein 2 (Homo sapiens) (UniProt Q8NFQ8)
Sequence (Q8NFQ8 whole entry, looked up): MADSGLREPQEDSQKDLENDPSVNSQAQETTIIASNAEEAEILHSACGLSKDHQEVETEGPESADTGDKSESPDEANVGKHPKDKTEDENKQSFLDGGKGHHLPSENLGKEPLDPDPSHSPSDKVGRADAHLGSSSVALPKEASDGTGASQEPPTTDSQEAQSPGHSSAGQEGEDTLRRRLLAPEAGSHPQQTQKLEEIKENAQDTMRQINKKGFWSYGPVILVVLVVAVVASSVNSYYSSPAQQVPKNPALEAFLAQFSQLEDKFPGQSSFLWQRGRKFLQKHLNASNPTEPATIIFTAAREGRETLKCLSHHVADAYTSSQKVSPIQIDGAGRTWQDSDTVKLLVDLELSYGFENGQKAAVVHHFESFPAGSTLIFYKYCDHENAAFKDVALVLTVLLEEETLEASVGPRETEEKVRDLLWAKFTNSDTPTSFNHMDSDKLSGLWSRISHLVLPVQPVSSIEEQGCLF
protocol_notes: small molecules binding lysate-expressed LULL1 – cell lysate, human LULL1 lysate, 635/667 nm fluorescence, primary screen (AID 1092);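 also: probe is lysate of COS7 cells overexpressing human LULL1; score merges per-feature 667 nm fluorescence with signal-to-noise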
applied_conditions: small-molecule microarray, hLULL1 lysate binding, 635 nm fluorescence; higher = more signal
measurement_type: composite z-score
Note: the reply should be a number with no unit written.

Answered examples (3):
Fill in: composite z-score on Torsin-1A-interacting protein 2 (Homo sapiens) (UniProt Q8NFQ8), entry COC(=O)[C@@]1(CCC(=O)OC(C)(C)C)N=C(c2ccc(OCCCO)cc2)O[C@H]1c1ccccc1
1.29

# return composite z-score of COc1ccc(C(=O)Nc2cccc(CN3C(=O)[C@]4(O[C@H](CCn5cc(CCO)nn5)[C@@H]([Si](C)(C)c5ccc(OC)cc5)[C@@H]4C)c4ccccc43)c2)cc1 (system: Torsin-1A-interacting protein 2 (Homo sapiens) (UniProt Q8NFQ8))
1.2

State measured composite z-score of the compound CN1C(=O)C2C=CC(C(O)c3ccc(F)cc3)N(N(c3ccccc3)c3ccccc3)C2C1=O (stereo not given) with Torsin-1A-interacting protein 2 (Homo sapiens) (UniProt Q8NFQ8).
1.86

Further cases:
Answer with composite z-score of O=C1O[C@H](c2ccccc2)[C@H](c2ccccc2)N2[C@H]1[C@@H](C(=O)NC[C@H](O)c1ccccc1)[C@]1(C(=O)Nc3ccccc31)[C@H]2c1ccc(O)cc1 measured for Torsin-1A-interacting protein 2 (Homo sapiens) (UniProt Q8NFQ8).
2.56

Check Torsin-1A-interacting protein 2 (Homo sapiens) (UniProt Q8NFQ8) data and give composite z-score for CC(C)C(=C=CC[C@H](O)c1ccc(CO)o1)CCO .
1.51

Write down measured composite z-score (Torsin-1A-interacting protein 2 (Homo sapiens) (UniProt Q8NFQ8)) for this compound. Cc1ccc(/C=C/C=O)cc1
-0.1

Recall the reported composite z-score of O=C1C2C=CC(C(O)c3c(F)cccc3Cl)N(Nc3ccccc3F)C2C(=O)N1c1ccccc1 (stereo not given) on Torsin-1A-interacting protein 2 (Homo sapiens) (UniProt Q8NFQ8) and write it down.
2.98

Param request: composite z-score | system Torsin-1A-interacting protein 2 (Homo sapiens) (UniProt Q8NFQ8) | item [N-]=[N+]=Nc1ccccc1C[C@]1(C(=O)NCC(O)CO)N=C(c2ccc(OCCCO)cc2)O[C@H]1c1ccccc1 (stereo not given in full)
2.2

Under Torsin-1A-interacting protein 2 (Homo sapiens) (UniProt Q8NFQ8): report composite z-score of O=C1[C@H]2C=C(I)[C@H](C[C@@H]2OCCCCO)[C@@]12CO2 .
0.512

Please report the measured composite z-score for COCCOC(=O)N1C(=O)[C@@]2(c3cc(C#Cc4ccc(OC)cc4)ccc31)[C@H](c1ccc(O)cc1)N1[C@H](c3ccccc3)[C@H](c3ccccc3)OC(=O)[C@H]1[C@@H]2C(=O)Nc1nc2ccccc2s1 tested on Torsin-1A-interacting protein 2 (Homo sapiens) (UniProt Q8NFQ8).
2.06

GET composite z-score where system = Torsin-1A-interacting protein 2 (Homo sapiens) (UniProt Q8NFQ8) and item = COCCOC(=O)N1C(=O)[C@@]2(c3cc(C#CC4(O)CCCCCC4)ccc31)[C@H](C(=O)Nc1nc3ccccc3s1)[C@H]1C(=O)O[C@H](c3ccccc3)[C@H](c3ccccc3)N1[C@@H]2c1ccccc1OCCO
2.89

Enter composite z-score (test system Torsin-1A-interacting protein 2 (Homo sapiens) (UniProt Q8NFQ8)) for Cc1ccc(S(=O)(=O)N2C[C@@H](C(=O)O)[C@H](Sc3ccccc3)C[C@H]2c2ccccc2)cc1
3.41

For Torsin-1A-interacting protein 2 (Homo sapiens) (UniProt Q8NFQ8), give the measured composite z-score of the entry C=CC[C@]1(C(=O)N2CCOCC2)N=C(c2ccc(OCCCO)cc2)O[C@H]1c1ccccc1N=[N+]=[N-]
3.45

Supply composite z-score measured with Torsin-1A-interacting protein 2 (Homo sapiens) (UniProt Q8NFQ8) for CC(=O)NCCCC[C@@H]1NC(=O)[C@H]2C[C@@H](C(=O)NCCCCCNC(=O)CS)[C@@H](c3ccc(O)cc3)N2C1=O .
1.69

Identify measured composite z-score obtained with Torsin-1A-interacting protein 2 (Homo sapiens) (UniProt Q8NFQ8) for O=C(O)[C@H]1C[C@H]2C(=O)N3CCC[C@H]3C(=O)N2[C@H]1c1ccc(O)cc1 .
0.631
